target: Dog MTP (Canis lupus familiaris, UniProt A0A8I3S8Z7)
Sequence (A0A8I3S8Z7 18-893): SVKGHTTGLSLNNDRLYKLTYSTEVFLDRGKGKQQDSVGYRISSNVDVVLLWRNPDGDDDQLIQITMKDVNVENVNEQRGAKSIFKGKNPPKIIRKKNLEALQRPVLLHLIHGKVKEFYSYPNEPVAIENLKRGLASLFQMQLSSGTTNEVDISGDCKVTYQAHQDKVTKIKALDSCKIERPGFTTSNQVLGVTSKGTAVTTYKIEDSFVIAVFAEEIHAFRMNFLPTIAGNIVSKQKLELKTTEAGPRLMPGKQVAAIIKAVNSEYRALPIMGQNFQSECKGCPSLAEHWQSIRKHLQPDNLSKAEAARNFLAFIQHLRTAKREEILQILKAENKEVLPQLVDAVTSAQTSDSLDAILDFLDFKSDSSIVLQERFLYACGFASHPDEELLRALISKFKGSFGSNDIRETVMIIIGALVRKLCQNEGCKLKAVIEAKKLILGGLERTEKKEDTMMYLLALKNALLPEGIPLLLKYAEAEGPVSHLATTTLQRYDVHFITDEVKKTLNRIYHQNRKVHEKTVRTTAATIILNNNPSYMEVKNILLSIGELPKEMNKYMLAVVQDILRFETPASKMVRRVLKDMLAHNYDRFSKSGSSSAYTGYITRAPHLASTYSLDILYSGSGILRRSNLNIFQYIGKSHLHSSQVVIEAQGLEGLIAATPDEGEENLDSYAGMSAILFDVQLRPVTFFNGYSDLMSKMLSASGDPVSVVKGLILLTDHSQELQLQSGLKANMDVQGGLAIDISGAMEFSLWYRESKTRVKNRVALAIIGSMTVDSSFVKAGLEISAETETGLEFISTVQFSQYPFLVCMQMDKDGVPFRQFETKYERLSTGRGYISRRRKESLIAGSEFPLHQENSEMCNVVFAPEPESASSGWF
MEASUREMENT_TYPE: IC50 (nM)
Give bare numbers, in nM.

Task item: Any idea what IC50 came out for CC[C@@H](C)n1ncn(-c2ccc(N3CCN(c4ccc(OC[C@@H]5CO[C@@](CSc6nncn6C)(c6ccc(Cl)cc6)O5)cc4)CC3)cc2)c1=O [compound A, reference compound] on Dog MTP (Canis lupus familiaris, UniProt A0A8I3S8Z7)?
Reply: 7.6
